System: Vero
assay_notes: Cytotoxicity against African green monkey Vero cells assessed as cell viability after 72 hrs by MTT assay
Type: cell-based
assay_conditions: chlorocebus sabaeus, vero, 72 h
reported_property: CC50

I would be grateful if you could share the reported CC50 for SODIUM ANTIMONY GLUCONATE .
> 400 µM

* * *

assay_notes: Cytotoxicity against African green monkey Vero cells assessed as cell viability after 72 hrs by MTT assay
Assay type: cell-based
assay_conditions: chlorocebus sabaeus, Vero cells
reported_property: CC50 at 72 h (µM)
Return type: number; implicit unit µM.

I'd like to know its CC50 at 72 h. The molecule in question is COc1cc(/C=C2\CN(C(=O)c3cc(/C=C/C4C(C)=CCCC4(C)C)on3)C/C(=C\c3cc(OC)c(OC)c(OC)c3)C2=O)cc(OC)c1OC (stereo not given)
25.3

// query: CCOc1cc(/C=C2\CN(C(=O)c3cc(/C=C/C4C(C)=CCCC4(C)C)on3)C/C(=C\c3ccc(O)c(OCC)c3)C2=O)ccc1O (stereo not given)
27.7

Moving on to the next molecule: COc1ccc(/C=C2\CN(C(=O)c3cc(/C=C/C4C(C)=CCCC4(C)C)on3)C/C(=C\c3ccc(OC)c(OC)c3)C2=O)cc1OC (stereo not given)
45.8

Another molecule: COc1cc(/C=C2\CN(C(=O)c3cc(/C=C/C4C(C)=CCCC4(C)C)on3)C/C(=C\c3ccc(O)c(OC)c3)C2=O)ccc1O (stereo not given)
23.4
